test system: Phytophthora infestans; test: whole plant or invertebrate; assay type: in vivo; details: 250 ppm; tomato seedlings; 100 = 100% disease control, 0 = no control
A collection of compounds and their measured Test D disease control rating
Write it as a number; the unit % goes unstated.

Known results for compounds:
compound="Cn1ncc(O)c(C(=O)Nc2ccc(C(F)(F)C(F)(F)F)cc2)c1=O [Compound 138]" uom=% result=99
compound="Cn1ncc(O)c(C(=O)Nc2ccc(S(=O)(=O)C(F)(F)F)cc2)c1=O [Compound 129]" uom=% result=82
compound="Cn1ncc(O)c(C(=O)Nc2ccccc2C(F)(F)F)c1=O [Compound 122]" uom=% result=95
compound="CNc1cnn(C)c(=O)c1C(=O)Nc1ccc(OC(F)(F)F)cc1 [Compound 146]" uom=% result=0

Now consider a different compound.
What measured Test D disease control rating goes with COc1cnn(C)c(=O)c1C(=O)Nc1ccc(Br)cc1 [Compound 59] ?
0

# credit: patent US20190133128A1
